Entry source: PubChem BioAssay AID1259343

inhibition listing for selected compounds.
# Measurement Notes: Mycobacterium tuberculosis growth inhibition, primary screen (AID 1259343)
# Condition Label: at 10 µM, active compounds read high
The campaign covered roughly 6,200 compounds. About 2,900 (47%) were called active. So high a share suggests a set chosen from earlier hits. Some of the results follow.
API: value field is a number in %; no unit string.

Below, 8 compounds whose answers are already recorded.
Compound	Units Label	inhibition
COc1cccc2c1OC(c1ccccn1)N1N=C(c3ccccc3)CC21 (centres undefined)	%	-22.4
CN(Cc1ccc(F)cc1)Cc1nc(Cc2ccccc2Cl)no1	%	89.3
CCCc1cc(=O)[nH]c(-n2nc(C)cc2NC(=O)c2cccc(C(F)(F)F)c2)n1	%	91.4
COc1cccc(C2Oc3ccccc3C3CC(c4ccc5c(c4)OCCO5)=NN32)c1 (centres undefined)	%	103
COC(=O)c1cc(-c2ccc3c(c2)CC(C)O3)on1 (centres undefined)	%	45.8
O=S(=O)(NCCc1cccc(Cl)c1)N1CCCCCC1	%	21.7
COC(=O)c1cc(-c2cc3ccccc3o2)on1	%	99.1
CCc1ccccc1NS(=O)(=O)c1cc(Cl)cnc1N	%	1.41

Req: Query (compound): O=S(=O)(Nc1ccccc1Br)c1ccc(Br)s1 ; field requested: inhibition
Resp: 83.3

Req: Item: COCCCC1CCN(Cc2nc(Cc3ccccc3Cl)no2)CC1
Resp: 29.1

Req: Next: CN(Cc1nc(-c2cccc(Cl)c2)no1)C1CCCCC1
Resp: 74.3

Req: Cool, now CN(Cc1ccc2nsnc2c1)Cc1nc(Cc2ccccc2Cl)no1
Resp: 31.6

Req: Input CCCc1cc(=O)[nH]c(-n2nc(C)cc2NC(=O)c2ccccc2)n1
Resp: 101

Req: Also CCCc1cc(=O)[nH]c(-n2nc(C)cc2NC(=O)c2cccc(OC)c2)n1 ?
Resp: 99.8

Req: And the next one, Cc1ccc(-c2ccc(C3=CC(C)(C)OC3=O)cc2)cc1 ?
Resp: 43.7

Req: Please answer likewise for CCCc1cc(=O)[nH]c(-n2nc(C)cc2NC(=O)c2cccc(F)c2)n1
Resp: 100

Req: Could you do the same for COC(=O)c1ccc(NC(=O)Cc2cc(-c3cc4ccccc4o3)on2)cc1 , please?
Resp: 84

Req: Same thing, different compound: Oc1ccc2ccccc2c1C=NC1CC1
Resp: 37.4

Req: // query: Cc1cc(C)cc(NC(=O)c2ncn(-c3ccccc3C)n2)c1
Resp: 77.4

Req: COC(=O)c1cc(-c2ccc(OC)cc2)on1 , same question.
Resp: 30.9

Req: Lookup O=C(NCCc1cccc(Cl)c1)N1CCc2ccccc2C1
Resp: 83.4

Req: Moving on to COC(=O)c1ccc(NS(=O)(=O)c2ccccc2Br)s1
Resp: 43.4

Req: Similarly, COc1ccc(-c2nnc(C(C)Nc3cccc4c3CCCC4)o2)cc1 (centres undefined) ?
Resp: 67.9

Req: Follow-up entry: Cc1cc(NC(=O)Cc2cc(-c3cc4ccccc4o3)on2)no1
Resp: -32.2
